# TARGET_DESC: P2Y purinoceptor 2 (Homo sapiens)
# Sequence (P41231 whole entry): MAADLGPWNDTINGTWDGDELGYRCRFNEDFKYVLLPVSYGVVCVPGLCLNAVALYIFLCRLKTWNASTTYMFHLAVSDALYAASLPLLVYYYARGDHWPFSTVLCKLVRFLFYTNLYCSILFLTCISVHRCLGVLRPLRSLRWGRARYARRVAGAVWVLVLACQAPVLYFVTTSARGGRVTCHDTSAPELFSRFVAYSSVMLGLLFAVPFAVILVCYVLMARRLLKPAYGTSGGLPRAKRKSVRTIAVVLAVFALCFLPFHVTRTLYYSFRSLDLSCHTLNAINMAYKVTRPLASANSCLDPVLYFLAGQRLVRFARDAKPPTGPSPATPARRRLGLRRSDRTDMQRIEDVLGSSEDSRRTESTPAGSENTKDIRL
# EXPERIMENT_NOTES: Agonist activity at human recombinant P2Y2 receptor expressed in human 1321N1 cells assessed as [3H]inositol phosphate production by scintillation proximity assay
PROPERTY: pEC50
Answers are plain numbers, as −log10 of the molar value.

Answered examples (3):
CCN(CC)CC.O=c1ccn([C@@H]2O[C@H](COP(=O)(O)OP(=O)(O)OP(=O)(O)OC3CCCCC3)[C@@H](O)[C@H]2O)c(=O)[nH]1    5.64
CONc1ccn([C@@H]2O[C@H](COP(=O)(O)OP(=O)(O)OP(=O)(O)OC[C@H]3O[C@@H](n4ccc(NOC)nc4=O)[C@H](O)[C@@H]3O)[C@@H](O)[C@H]2O)c(=O)n1    5.67
CC(C)(C)O/N=c1/ccn([C@@H]2O[C@H](COP(=O)(O)OP(=O)(O)O)[C@@H](O)[C@H]2O)c(=O)[nH]1    5.45

Below are some compounds; for each one, tell me its pEC50.
1. CCN(CC)CC.CO/N=c1/ccn([C@@H]2O[C@H](COP(=O)(O)OP(=O)(O)OP(=O)(O)OC[C@H]3O[C@@H](n4ccc(=O)[nH]c4=O)[C@H](O)[C@@H]3O)[C@@H](O)[C@H]2O)c(=O)[nH]1
2. CO/N=c1\ccn([C@@H]2O[C@H](COP(=O)(O)OP(=O)(O)OP(=O)(O)O)[C@@H](O)[C@H]2O)c(=O)[nH]1
3. CCN(CC)CC.O=c1[nH]/c(=N\OCc2ccccc2)ccn1[C@@H]1O[C@H](COP(=O)(O)OP(=O)(O)O)[C@@H](O)[C@H]1O
4. CCO/N=c1/ccn([C@@H]2O[C@H](COP(=O)(O)OP(=O)(O)O)[C@@H](O)[C@H]2O)c(=O)[nH]1
5. CCN(CC)CC.CO/N=c1/ccn([C@@H]2O[C@H](COP(=O)(O)OP(=O)(O)O)[C@@H](O)[C@H]2O)c(=O)[nH]1
6. O=c1ccn([C@@]23C[C@H]2[C@H](COP(=O)(O)OP(=O)(O)OP(=O)(O)O)[C@@H](O)[C@H]3O)c(=O)[nH]1

Response:
1: 6.77; 2: 7.30; 3: 5.67; 4: 6.55; 5: 5.44; 6: 7.10

====

Assign t1/2 to each entry below.
# EXPERIMENT_NOTES: Stability assessed as half life by HPLC in presence of human 1321N1 cell membranes
# Assay type: ADME, cell-based
One number for each entry, in h.

Answered examples (3):
CCN(CC)CC.O=c1ccn([C@@H]2O[C@H](COP(=O)(O)OP(=O)(O)OP(=O)(O)O[C@H]3O[C@H](CO)[C@@H](O)[C@H](O)[C@H]3O)[C@@H](O)[C@H]2O)c(=O)[nH]1    29
O=c1ccn([C@@H]2O[C@H](COP(=O)(O)OP(=O)(O)OP(=O)(O)O)[C@@H](O)[C@H]2O)c(=O)[nH]1 [URIDINE TRIPHOSPHATE]    31
CCN(CC)CC.O=c1[nH]/c(=N\OCc2ccccc2)ccn1[C@@H]1O[C@H](COP(=O)(O)OP(=O)(O)O)[C@@H](O)[C@H]1O    26

Below are some compounds; for each one, tell me its t1/2.
1. CCN(CC)CC.O=c1ccn([C@@H]2O[C@H](COP(=O)(O)OP(=O)(O)OP(=O)(O)Oc3ccccc3)[C@@H](O)[C@H]2O)c(=O)[nH]1
2. CCN(CC)CC.O=c1ccn([C@@H]2O[C@H](COP(=O)(O)OP(=O)(O)OP(=O)(O)OC3CCCCC3)[C@@H](O)[C@H]2O)c(=O)[nH]1
3. CCN(CC)CC.O=c1ccn([C@@H]2O[C@H](COP(=O)(O)CP(=O)(O)OP(=O)(O)O[C@H]3O[C@H](CO)[C@@H](O)[C@H](O)[C@H]3O)[C@@H](O)[C@H]2O)c(=O)[nH]1
4. CCN(CC)CC.CO/N=c1/ccn([C@@H]2O[C@H](COP(=O)(O)OP(=O)(O)O)[C@@H](O)[C@H]2O)c(=O)[nH]1
5. CCN(CC)CC.CO/N=c1/ccn([C@@H]2O[C@H](COP(=O)(O)OP(=O)(O)OP(=O)(O)OC[C@H]3O[C@@H](n4ccc(=O)[nH]c4=O)[C@H](O)[C@@H]3O)[C@@H](O)[C@H]2O)c(=O)[nH]1
6. CCN(CC)CC.O=c1ccn([C@@H]2O[C@H](COP(=O)(O)CP(=O)(O)OP(=O)(O)OC[C@H]3O[C@@H](n4ccc(=O)[nH]c4=O)[C@H](O)[C@@H]3O)[C@@H](O)[C@H]2O)c(=O)[nH]1

Response:
[43, 62, 19, 55, 23, 62]

====

# TARGET_DESC: P2Y purinoceptor 6 (Homo sapiens)
# Sequence (Q15077 whole entry): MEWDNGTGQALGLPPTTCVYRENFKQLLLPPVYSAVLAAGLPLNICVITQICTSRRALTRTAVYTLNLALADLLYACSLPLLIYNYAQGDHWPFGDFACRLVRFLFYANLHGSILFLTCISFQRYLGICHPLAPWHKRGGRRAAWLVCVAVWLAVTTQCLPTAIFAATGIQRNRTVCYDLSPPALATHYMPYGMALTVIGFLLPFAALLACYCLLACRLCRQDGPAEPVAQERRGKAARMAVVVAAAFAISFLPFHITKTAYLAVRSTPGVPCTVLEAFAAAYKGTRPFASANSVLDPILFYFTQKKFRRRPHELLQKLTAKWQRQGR
# EXPERIMENT_NOTES: Agonist activity at human recombinant P2Y6 receptor expressed in human 1321N1 cells assessed as [3H]inositol phosphate production by scintillation proximity assay
# Format: functional, cell-based
PROPERTY: pEC50
Answers are plain numbers, as −log10 of the molar value.

Answered examples (4):
CO/N=c1\ccn([C@@H]2O[C@H](COP(=O)(O)OP(=O)(O)OP(=O)(O)O)[C@@H](O)[C@H]2O)c(=O)[nH]1    7.10
CCN(CC)CC.CO/N=c1/ccn([C@@H]2O[C@H](COP(=O)(O)OP(=O)(O)OP(=O)(O)OC[C@H]3O[C@@H](n4ccc(=O)[nH]c4=O)[C@H](O)[C@@H]3O)[C@@H](O)[C@H]2O)c(=O)[nH]1    7.92
CO/N=c1/ccn([C@@H]2O[C@H](COP(=O)(O)OP(=O)(O)OP(=O)(O)Oc3ccccc3)[C@@H](O)[C@H]2O)c(=O)[nH]1    5.46
O=c1[nH]c(=O)n([C@@H]2O[C@H](COP(=O)(O)OP(=O)(O)OP(=O)(O)O[C@H]3O[C@H](CO)[C@@H](O)[C@H](O)[C@H]3O)[C@@H](O)[C@H]2O)cc1I    5.33

Below are some molecules; for each one, tell me its pEC50.
1. CCN(CC)CC.O=c1ccn([C@@H]2O[C@H](COP(=O)(O)OP(=O)(O)OP(=O)(O)OC3CCCCC3)[C@@H](O)[C@H]2O)c(=O)[nH]1
2. O=c1ccn([C@@]23C[C@H]2[C@H](COP(=O)(O)OP(=O)(O)OP(=O)(O)O)[C@@H](O)[C@H]3O)c(=O)[nH]1

Response:
1. 5.16
2. 5.86

====

# TARGET_DESC: P2Y purinoceptor 4 (Homo sapiens, UniProt P51582)
# Sequence (P51582 whole entry): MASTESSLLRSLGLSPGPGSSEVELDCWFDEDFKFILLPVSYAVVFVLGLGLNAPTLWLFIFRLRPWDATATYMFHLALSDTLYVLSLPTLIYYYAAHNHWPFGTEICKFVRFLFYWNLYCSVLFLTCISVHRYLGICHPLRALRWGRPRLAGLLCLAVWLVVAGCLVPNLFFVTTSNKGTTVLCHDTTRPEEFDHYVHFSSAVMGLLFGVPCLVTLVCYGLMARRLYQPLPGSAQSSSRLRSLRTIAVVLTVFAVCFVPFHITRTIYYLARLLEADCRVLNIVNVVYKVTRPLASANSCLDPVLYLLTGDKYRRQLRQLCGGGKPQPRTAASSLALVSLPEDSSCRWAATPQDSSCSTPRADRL
# EXPERIMENT_NOTES: Agonist activity at human recombinant P2Y4 receptor expressed in human 1321N1 cells assessed as [3H]inositol phosphate production by scintillation proximity assay
PROPERTY: EC50

Answered examples (3):
O=c1ccn([C@@]23C[C@H]2[C@H](COP(=O)(O)OP(=O)(O)OP(=O)(O)O)[C@@H](O)[C@H]3O)c(=O)[nH]1    0.3 µM
CO/N=c1\ccn([C@@H]2O[C@H](COP(=O)(O)OP(=O)(O)OP(=O)(O)O)[C@@H](O)[C@H]2O)c(=O)[nH]1    0.05 µM
CC(C)(C)O/N=c1/ccn([C@@H]2O[C@H](COP(=O)(O)OP(=O)(O)O)[C@@H](O)[C@H]2O)c(=O)[nH]1    6.23 µM

Now turn to the next compound.
Query: Give me measured EC50, please, for this compound: CCN(CC)CC.CO/N=c1/ccn([C@@H]2O[C@H](COP(=O)(O)OP(=O)(O)O)[C@@H](O)[C@H]2O)c(=O)[nH]1
Response: 6.45 µM

====

# TARGET_DESC: P2Y purinoceptor 4 (Homo sapiens)
# EXPERIMENT_NOTES: Agonist activity at human recombinant P2Y4 receptor expressed in human 1321N1 cells assessed as [3H]inositol phosphate production by scintillation proximity assay
PROPERTY: EC50 (nM)
Answers are plain numbers, in nM.

CCO/N=c1/ccn([C@@H]2O[C@H](COP(=O)(O)OP(=O)(O)O)[C@@H](O)[C@H]2O)c(=O)[nH]1    180
CCN(CC)CC.O=c1[nH]/c(=N\OCc2ccccc2)ccn1[C@@H]1O[C@H](COP(=O)(O)OP(=O)(O)O)[C@@H](O)[C@H]1O    1150
CCN(CC)CC.CO/N=c1/ccn([C@@H]2O[C@H](COP(=O)(O)OP(=O)(O)OP(=O)(O)OC[C@H]3O[C@@H](n4ccc(=O)[nH]c4=O)[C@H](O)[C@@H]3O)[C@@H](O)[C@H]2O)c(=O)[nH]1    790

Now turn to the next molecule.
Query: Give me measured EC50, please, for this molecule: CONc1ccn([C@@H]2O[C@H](COP(=O)(O)OP(=O)(O)OP(=O)(O)OC[C@H]3O[C@@H](n4ccc(NOC)nc4=O)[C@H](O)[C@@H]3O)[C@@H](O)[C@H]2O)c(=O)n1
Response: 560
